Reported pKd values for a set of binders
molecular target: MAST1, Q9Y2H9; assay: holdup assay; parameters: key: below the threshold = too weak to quantify, mostly under pKd 3.1 to 4; details: plain residues with an end cap or a label only (N-terminal biotin on a linker: ado-ado)
Sequence (Q9Y2H9 962-1065): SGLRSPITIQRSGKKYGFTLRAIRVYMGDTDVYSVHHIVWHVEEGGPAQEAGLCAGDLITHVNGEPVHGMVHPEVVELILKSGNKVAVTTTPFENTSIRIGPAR
PROPERTY_NAME: pKd

YLEPVLSSEL [ATP2A2, P16615;P16615-3] :: 4.83
LPHPHSTTRV [NLGN2, Q8NFZ4] :: 4.64
SKSNFGSEPL [KIF17, Q9P2E2] :: 3.61
TLPRKRMSSI [GPRC6A, Q5T6X5] :: 3.6

Cited source: paper PMC9482650
